tested on: Plasmodium vivax liver stage (primary human hepatocyte culture); details: P. vivax isolate: Pv668; hepatocyte lot: BGW; assay mode: Radical Cure, 8-day (treatment from day 5 post-infection)

[
  {
    "compound": "N#CC(C#N)=NNc1cc(Cl)cc(Cl)c1",
    "readout qualifier": "=",
    "EC50 schizont net growth area (µM)": 4.04
  },
  {
    "compound": "CNC(=S)N/N=C(\\C)c1ccccn1",
    "readout qualifier": "=",
    "EC50 schizont net growth area (µM)": 4.44
  },
  {
    "compound": "CN(C)CCCNc1c2ccccc2nc2ccccc12",
    "readout qualifier": "=",
    "EC50 schizont net growth area (µM)": 9.24
  },
  {
    "compound": "CN1CCN(c2ccc(Nc3c4ccccc4nc4ccccc34)cc2)CC1",
    "readout qualifier": "=",
    "EC50 schizont net growth area (µM)": 6.04
  },
  {
    "compound": "CC[C@H]1CN2CCc3cc(OC)c(OC)cc3[C@@H]2C[C@@H]1C[C@H]1NCCc2cc(OC)c(OC)cc21",
    "readout qualifier": "=",
    "EC50 schizont net growth area (µM)": 0.306
  },
  {
    "compound": "O=S1(=O)C=CC2ON=C(c3ccc(Cl)cc3)C21 (stereo unspecified)",
    "readout qualifier": ">",
    "EC50 schizont net growth area (µM)": 1.85
  }
]

----------
system: Plasmodium cynomolgi Berok K4 asexual blood stage; assay: EC50 asexual blood stage growth; details: serum: 20% M. fascicularis serum
quantity: EC50 asexual blood stage growth (µM)

[
  {
    "compound": "O[C@H](c1cc(C(F)(F)F)nc2c(C(F)(F)F)cccc12)[C@@H]1CCCCN1 [(+)-Mefloquine]",
    "readout qualifier": "=",
    "observed result": 0.06
  },
  {
    "compound": "CC(C)(C)c1cc(O)c(CN)c(C(C)(C)C)c1.Cl [MK-4815]",
    "readout qualifier": "=",
    "observed result": 0.0938
  },
  {
    "compound": "C=C(NC(=O)C(=C)NC(=O)c1csc(C2=NC3c4csc(n4)C4NC(=O)c5csc(n5)C(C(C)(O)C(C)O)NC(=O)C5CSC(=N5)C(=CC)NC(=O)C(C(C)O)NC(=O)c5csc(n5)C3(CC2)NC(=O)C(C)NC(=O)C(=C)NC(=O)C(C)NC(=O)C(C(C)CC)NC2C=Cc3c(C(C)O)cc(nc3C2O)C(=O)OC4C)n1)C(N)=O (configuration not stated) [Thiostrepton]",
    "readout qualifier": "=",
    "observed result": 9.13
  },
  {
    "compound": "CCC[C@@H]1C[C@@H](C(=O)N[C@@H]([C@H]2O[C@H](SC)[C@H](O)[C@@H](O)[C@H]2O)[C@H](C)Cl)N(C)C1 [Clindamycin]",
    "readout qualifier": "=",
    "observed result": 9.21
  },
  {
    "compound": "CCNCc1cc(Nc2ccnc3cc(Cl)ccc23)ccc1O [N-Desethylamodiaquine]",
    "readout qualifier": "=",
    "observed result": 0.0115
  },
  {
    "compound": "Cc1nn(C)c(NC(=O)Cn2c(C(C)C)nc3ccccc32)c1-c1ccc(Cl)cc1F [21A092]",
    "readout qualifier": "=",
    "observed result": 0.0794
  },
  {
    "compound": "CC(C)(C)NCc1cc(C(C)(C)C)cc(-c2ccc(Cl)cc2)c1O",
    "readout qualifier": "=",
    "observed result": 0.0068
  },
  {
    "compound": "Clc1ccc2c(N3CCN(CCCN4CCN(c5ccnc6cc(Cl)ccc56)CC4)CC3)ccnc2c1 [Piperaquine]",
    "readout qualifier": "=",
    "observed result": 0.0353
  },
  {
    "compound": "CCN(CCO)CCCC(C)Nc1ccnc2cc(Cl)ccc12 (configuration not stated) [Hydroxychloroquine]",
    "readout qualifier": "=",
    "observed result": 0.209
  },
  {
    "compound": "COc1cc(NC(C)CCCN)c2ncccc2c1 (configuration not stated) [Primaquine]",
    "readout qualifier": "=",
    "observed result": 9
  },
  {
    "compound": "CC(C)(C)NCc1cc(Nc2ccnc3cc(Cl)ccc23)c2c(c1O)CCCC2 [Naphthoquine]",
    "readout qualifier": "=",
    "observed result": 0.0683
  },
  {
    "compound": "CCN(CC)CCCC(C)Nc1cc(OC)cc2cccnc12 (configuration not stated) [Pamaquine]",
    "readout qualifier": "=",
    "observed result": 0.187
  },
  {
    "compound": "CC1CCCC(CC2Cc3cc(O)cc(O)c3C(=O)O2)O1 (configuration not stated) [Cladosporin]",
    "readout qualifier": "=",
    "observed result": 1.43
  },
  {
    "compound": "CC(C)(N)CNC(=O)CC1CCC2(CC1)OOC1(O2)C2CC3CC(C2)CC1C3 (configuration not stated) [Arterolane]",
    "readout qualifier": "=",
    "observed result": 0.001
  },
  {
    "compound": "Cc1c(Oc2cnc(C(=O)N3CC(C)(O)C3)cn2)ccc2c1B(O)OC2 [AN762]",
    "readout qualifier": "=",
    "observed result": 2.2
  },
  {
    "compound": "c1cc(C2CCC3(CC2)OOC2(O3)C3CC4CC(C3)CC2C4)ccc1OCCN1CCOCC1 (configuration not stated) [Artefenomel]",
    "readout qualifier": "=",
    "observed result": 0.0023
  },
  {
    "compound": "CN(C)CC1=C(CNc2ccnc3cc(Cl)ccc23)C=[C-]C1.[C-]1=CC=CC1.[Fe+2] [Ferroquine]",
    "readout qualifier": "=",
    "observed result": 0.0362
  },
  {
    "compound": "Nc1ccc(S(=O)(=O)Nc2ncccn2)cc1 [Sulfadiazine]",
    "readout qualifier": "=",
    "observed result": 8.32
  },
  {
    "compound": "CN(C)[C@@H]1C(O)=C(C(N)=O)C(=O)[C@@]2(O)C(O)=C3C(=O)c4c(O)cccc4[C@@](C)(O)[C@H]3C[C@@H]12 [Tetracycline]",
    "readout qualifier": ">",
    "observed result": 10
  },
  {
    "compound": "CC(C)(C)NCc1cc(Nc2ccnc3cc(Cl)ccc23)ccc1F",
    "readout qualifier": "=",
    "observed result": 0.0388
  },
  {
    "compound": "O=C(NCCN1CCCC1)c1cc(-c2ccc(CN3CCOCC3)cc2)nc2ccc(F)cc12",
    "readout qualifier": "=",
    "observed result": 0.0007
  },
  {
    "compound": "N=C(N)c1ccc(OCCCCCOc2ccc(C(=N)N)cc2)cc1 [Pentamidine]",
    "readout qualifier": "=",
    "observed result": 0.389
  },
  {
    "compound": "O=C1C(O)=C([C@H]2CC[C@H](c3ccc(Cl)cc3)CC2)C(=O)c2ccccc21 [Atovaquone]",
    "readout qualifier": "=",
    "observed result": 0.0017
  },
  {
    "compound": "CC1CCC2C(C)C(O)OC3OC4(C)CCC1C32OO4 (configuration not stated) [Artenimol]",
    "readout qualifier": "=",
    "observed result": 0.0005
  },
  {
    "compound": "OC(c1cc(C(F)(F)F)nc2c(C(F)(F)F)cccc12)C1CCCCN1 (racemic) [(±)-Mefloquine]",
    "readout qualifier": "=",
    "observed result": 0.0664
  },
  {
    "compound": "Cc1nc(Nc2ncc(N3CCN(C)C(C)C3)c(Nc3cc(C)n(C)n3)n2)cc(C2CC2)c1F (configuration not stated) [AZ412]",
    "readout qualifier": "=",
    "observed result": 0.0567
  },
  {
    "compound": "N#Cc1cc(NC(=O)C2c3ccccc3C(=O)N(CC(F)(F)F)C2c2cccnc2)ccc1F (configuration not stated) [SJ733]",
    "readout qualifier": "=",
    "observed result": 0.293
  },
  {
    "compound": "COc1cc(Cc2cnc(N)nc2N)cc(OC)c1OC [Trimethoprim]",
    "readout qualifier": "=",
    "observed result": 0.496
  },
  {
    "compound": "C=CC1CN2CCC1CC2C(O)c1ccnc2ccc(OC)cc12 (configuration not stated) [Quinidine]",
    "readout qualifier": "=",
    "observed result": 0.0185
  },
  {
    "compound": "COc1cc(C)c2c(Oc3cccc(C(F)(F)F)c3)c(OC)cc(NC(C)CCCN)c2n1 (configuration not stated) [Tafenoquine]",
    "readout qualifier": ">",
    "observed result": 10
  },
  {
    "compound": "COC1OC2OC3(C)CCC4C(C)CCC(C1C)C24OO3 (configuration not stated) [Artemether]",
    "readout qualifier": "=",
    "observed result": 0.0065
  },
  {
    "compound": "CN(C)Cc1ccccc1CNc1ccnc2cc(Cl)ccc12 [Phenylequine]",
    "readout qualifier": "=",
    "observed result": 0.0407
  }
]
